Quick list: pIC50 per entry.
Molecular target: human A2A receptor (Homo sapiens)
Construct: expressed in transfected cells; host or cells: HEK293
Sequence (P29274 whole entry): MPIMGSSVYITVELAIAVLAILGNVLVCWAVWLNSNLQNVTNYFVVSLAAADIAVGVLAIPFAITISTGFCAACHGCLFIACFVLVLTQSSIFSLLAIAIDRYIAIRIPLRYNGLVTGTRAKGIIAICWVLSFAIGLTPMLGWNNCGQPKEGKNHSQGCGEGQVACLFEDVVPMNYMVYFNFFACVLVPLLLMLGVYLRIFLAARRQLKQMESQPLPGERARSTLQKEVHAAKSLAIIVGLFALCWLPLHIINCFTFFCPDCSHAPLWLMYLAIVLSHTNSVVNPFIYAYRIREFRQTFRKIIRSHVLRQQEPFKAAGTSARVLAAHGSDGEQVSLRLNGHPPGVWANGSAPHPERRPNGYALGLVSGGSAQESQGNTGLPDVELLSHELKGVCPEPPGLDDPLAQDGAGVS
Assay: cAMP HTRF functional assay, recombinant HEK293 cells expressing human A2A receptor, agonist NECA
Assay type: cell-based
pIC50: −log10 of the molar value.

>  <Compound>
C#CCC1(O)CCN(C(=O)Nc2cnc3c(C4CCOCC4)ccc(OC)c3n2)CC1 [compound 10]

>  <System Name>
human A2A receptor (Homo sapiens)

>  <Measurement>
> 7.00

$$$$
>  <Compound>
COc1ccc(C2=CCOCC2)c2ncc(NC(=O)c3ncc(C4CCOC4)s3)nc12 (stereo not drawn) [compound 140]

>  <System Name>
human A2A receptor (Homo sapiens)

>  <Measurement>
> 8.00

$$$$
>  <Compound>
COc1ccc(-c2cccnc2)c2ncc(NC(=O)C3CC3)nc12 [compound 121]

>  <System Name>
human A2A receptor (Homo sapiens)

>  <Measurement>
> 7.00

$$$$

// pIC50 lookup, compound = COc1ccc(-c2ccc(F)cc2)c2ncc(NC(=O)c3cnc(C)o3)nc12 [compound 131] , result: > 8.00

// pIC50 lookup, compound = COc1ccc(-c2ccccc2F)c2ncc(NC(=O)c3cnc(C)o3)nc12 [compound 129] , result: > 8.00

Values were extracted from patent US11192899B2.
